System: HCC-2998 colon
PROTOCOL_TEXT: NCI-60 one-dose screen, 48 h
CONDITION_SUMMARY: 10 µM unless noted
This is part of a sample that, as a whole, favours compounds with a hit. Of some 83,000 tested, about 20% had one in any assay. The source made the active and inactive calls. How the source made its calls: active means growth percent below 10; inactive means the rest.
Outcomes: 1 (yes) = active, 0 (no) = inactive

Cc1[nH]c(C(=O)Nc2ccccc2OCc2cccc(C(=O)NC3CCCNC3)c2)c(Cl)c1Cl (centres undefined); 1 (yes)
CS(=O)(=O)c1ccc(/C(=N/N=C(N)N)c2ccc(Cl)cc2)cc1; 0 (no)
CCCC[n+]1ccc(SCC(=O)n2ccc3ccccc32)c2ccccc21; 0 (no)
CN1CCN(c2ccc(Nc3nc(NCCCNS(=O)(=O)c4ccccc4)c4sccc4n3)cc2)CC1; 0 (no)
C/C(=N\NC(=O)/C=C/CC(=O)O)c1nnn(-c2ccc([N+](=O)[O-])cc2)c1C; 0 (no)
NC1CC2(CCN(c3cnc(C(=O)Nc4cc(F)cc5cccnc45)cn3)CC2)C1; 0 (no)
O=C(Nc1ccc(N=Cc2c(O)[nH]c3ccccc23)cc1)Nc1ccc(S(=O)(=O)Nc2ncccn2)cc1; 0 (no)
COc1ccc(OC)c(NC(=O)CCCCCCNC(=O)C(O)(O)C(F)(F)F)c1; 0 (no)
CCOc1cccc(/C(N)=N/C(N)=N/c2nc3ccccc3s2)c1; 0 (no)
CC(C)(C)c1cc(NC(=O)Nc2ccc(-c3cn4c5c(sc4n3)CCc3c[nH]cc3-5)cc2)no1; 0 (no)
CC1(C)CC[C@]23CC[C@]4(C)[C@H](CC[C@@H]5[C@@]6(C)CC[C@H](NCO)C(C)(C)[C@@H]6CC[C@]54C)[C@H]2[C@H]1OC3; 1 (yes)
C#CCOc1ccc(/C=N/Nc2nc(-c3ccc(OC)cc3)cs2)cc1; 0 (no)
O=C(CCCCCCNC(=O)c1csc(Br)n1)NO; 0 (no)
Nc1cc(C(=O)N/N=C\c2ccc(OC(F)F)c(OC3CCCC3)c2)nn1CC(O)c1ccccc1 (centres undefined); 0 (no)
C=C(C=O)[C@@H]1CC[C@]2(C(=O)O)CC[C@]3(C)C(CC[C@@H]4[C@@](C)(CCC#N)[C@H](C(=C)C=O)CC[C@]43C)[C@@H]12 (some centres undefined); 0 (no)
COc1cc2oc(-c3cccc(NC(=O)c4cccc([N+](=O)[O-])c4)c3)cc(=O)c2c(OC)c1OC; 0 (no)
CC(Nc1c(C#N)cnc2ccc(-c3cncc(O)c3)cc12)c1ccccc1 (centres undefined); 0 (no)
O=C(CN1CCN(c2cc(=O)[nH]c3ccc(F)cc23)CC1)N(c1ccccc1)c1ccccc1; 0 (no)
CSc1ccc(/C(=N/N=C(N)N)c2ccc(Cl)cc2)cc1; 1 (yes)

The measurements presented in this section are drawn from PubChem BioAssay (NCI).
